tested on: MDA-N; assay: NCI tumour cell line growth inhibition, 48 h
For each of the molecules below, state its TGI.

Short answer for NNc1ccccc1Cl : TGI was > 100 µM

Short answer for O=C1Oc2ccccc2C(=O)/C1=C/N1C(=O)N/C(=C\c2cccc(O)c2)C1=O : TGI was > 100 µM

Short answer for O=C1OC(C2=CC(=O)c3ccccc3C2=O)C(Cl)=C1Cl (configuration not stated) : TGI was > 100 µM

Short answer for CC1(c2nc3ccccc3[nH]2)CCC(C(N)=O)C(C)(C)O1 (configuration not stated) : TGI was > 100 µM

Short answer for Nc1ccc2cc3[nH]c4cc(N)ccc4c3nc2c1 : TGI was 1.13 µM

Short answer for O=C(NCCNCCNCCNC(=O)c1cc(-c2ccccc2)nc2ccccc12)c1cc(-c2ccccc2)nc2ccccc12 : TGI was 2.97 µM

Short answer for Cn1c(Sc2ccc(-c3cccnc3)n2C)ccc1-c1cccnc1 : TGI was 25.3 µM

Short answer for CN(C)CCNC(=O)Cn1ccc(=O)c2ccc([N+](=O)[O-])cc21 : TGI was > 100 µM

Short answer for C/C1=C\[C@H](C)C[C@H](C)OC(=O)C[C@H](c2ccc(O)cc2)NC(=O)[C@H](Cc2ccc(O)c(Br)c2)N(C)C(=O)[C@H](C)NC(=O)[C@@H](C)C1 : TGI was > 25 µM

Short answer for O=C(Nc1nnc(-c2c(Cl)c(Cl)c(Cl)c(Cl)c2-c2nc3cc(C(=O)c4ccccc4)ccc3[nH]2)o1)c1ccccc1 : TGI was 12.6 µM

Short answer for Nc1nc(Cl)cc(NCC2(CO)CCC(O)C2)n1 (configuration not stated) : TGI was > 100 µM

Short answer for CO[C@@H]1C=C[C@@]23c4cc5c(cc4C(O)N(CC2O)C3C1)OCO5 (some centres not stated) : TGI was 26.1 µM

Short answer for COc1ccc(C2CC(c3ccc4ccccc4c3O)=NN2C(C)=O)cc1OC (configuration not stated) : TGI was > 100 µM

Short answer for CN(C)/C=C(\C(=O)c1ccccc1)n1nc(-c2ccccc2)cc1-c1ccccc1 : TGI was > 10 µM

Short answer for O=C(Nc1sccc1S(=O)(=O)c1ccc(Cl)cc1)C(F)(F)F : TGI was 77.3 µM

Short answer for COc1ccc2c(c1)CCCN1Cc3cc(OC)c(OC)cc3CC21 (configuration not stated) : TGI was > 100 µM

Short answer for O=C(O)CCCSc1nc2ccccc2s1 : TGI was > 100 µM

Short answer for CN1C(=O)[C@@H]2N(CSC2(C)C)C1=S : TGI was > 100 µM

Short answer for O=C(O)C[O][Sb][O]CC(=O)O : TGI was > 100 µM

Short answer for O=C1c2ccccc2-c2n[nH]c3cccc1c23 : TGI was > 100 µM

Short answer for CCO/C=N/C1=C(C#N)C(c2ccc(Cl)cc2)c2c(-c3ccccc3)nn(-c3ccccc3)c2O1 (configuration not stated) : TGI was 45.8 µM

Short answer for CN(C)c1nc(=NCc2cccs2)ss1 : TGI was > 10 µM

----------
system: SF-268 CNS; assay: NCI tumour cell line growth inhibition, 48 h
For each of the compounds below, state its TGI.

Entry CCOC(CI)O[C@@H]1C=C[C@H](OC(C)=O)C1 (stereo not given in full) ; assay system SF-268 CNS; TGI recorded at > 100 µM

Entry O=C(Nc1sccc1S(=O)(=O)c1ccc(Cl)cc1)C(F)(F)F ; assay system SF-268 CNS; TGI recorded at 83.6 µM

Entry COc1ccc(CC2c3cc(OC)c(OC)c(OC)c3CC[N+]2(C)C)cc1Oc1ccc(CC2c3cc4c(c(OC)c3CCN2C)OCO4)cc1 (stereo not given) ; assay system SF-268 CNS; TGI recorded at > 100 µM

Entry CCOC(=O)c1ccc(Nc2sc(C(=O)c3cccc([N+](=O)[O-])c3)c(N)c2C#N)cc1 ; assay system SF-268 CNS; TGI recorded at 21 µM

Entry CN(C)CC/C(=N\Nc1ccc(Cl)c(Cl)c1)c1ccccc1 ; assay system SF-268 CNS; TGI recorded at 3.48 µM

----------
tested on: M14 melanoma; assay: NCI tumour cell line growth inhibition, 48 h
measurement-label: TGI

Entry O=C1/C(=C/c2ccccc2)N=C(c2ccccc2)N1C1Nc2cc3c(cc2S1)NC(N1C(=O)/C(=C/c2ccccc2)N=C1c1ccccc1)S3 (stereo not given) ; assay system M14 melanoma; TGI recorded at > 100 µM

Entry CN(C)CCNC(=O)Cn1ccc(=O)c2ccc([N+](=O)[O-])cc21 ; assay system M14 melanoma; TGI recorded at > 100 µM

Entry O=C(Nc1sccc1S(=O)(=O)c1ccc(Cl)cc1)C(F)(F)F ; assay system M14 melanoma; TGI recorded at > 100 µM

Entry Nc1ccc(Nc2c3ccccc3nc3ccccc23)cc1 ; assay system M14 melanoma; TGI recorded at > 10 µM

Entry COc1ccc(CC2c3cc(OC)c(OC)c(OC)c3CC[N+]2(C)C)cc1Oc1ccc(CC2c3cc4c(c(OC)c3CCN2C)OCO4)cc1 (stereo not given) ; assay system M14 melanoma; TGI recorded at > 100 µM

Entry Cc1nc(-c2cc3c(ccc4ccccc43)oc2=O)cc2c1c(=O)oc1ccc3ccccc3c12 ; assay system M14 melanoma; TGI recorded at > 100 µM

Entry OCc1ccc2c(c1)CC1(C2)Cc2cc3c(cc2C1)CCC3 ; assay system M14 melanoma; TGI recorded at > 100 µM

Entry CN1CCCC1=NC#N ; assay system M14 melanoma; TGI recorded at > 100 µM

Entry COc1ccc2oc(=O)c(CC=C(C)C)c(O)c2c1C ; assay system M14 melanoma; TGI recorded at > 100 µM

Entry Nc1c(C(=O)c2cccc(CCC3(O)CCCC3)c2)cnn1-c1ccc(F)cc1 ; assay system M14 melanoma; TGI recorded at > 25 µM

Entry CC1(O)CC2(O)C=CC3=C(C(=O)c4cccc(O)c4C3=O)C2(O)C(=O)C1O (stereo not given) ; assay system M14 melanoma; TGI recorded at 2.74 µM

Entry CCOC(=O)C(=Cc1cc(OC)ccc1OC)C(=O)OCC ; assay system M14 melanoma; TGI recorded at 24.2 µM

Entry CCN(C(=O)CCl)C(C)(C)C(SSSC(c1ccc(Cl)cc1)C(C)(C)N(CC)C(=O)CCl)c1ccc(Cl)cc1 (stereo not given) ; assay system M14 melanoma; TGI recorded at 3.65 µM

Entry COc1cc(C(=O)C/C(CCC(=O)Nc2ccc(Cl)cc2Cl)=N/NC(=O)C(N)=O)ccc1O ; assay system M14 melanoma; TGI recorded at > 100 µM

Entry Cc1c(C(=O)/C=C/c2ccccc2Cl)[n+](=O)c2ccccc2n1[O-] ; assay system M14 melanoma; TGI recorded at 29 µM

Entry CC(C)(C)OC(=O)NC(Cc1ccc(OCc2ccccc2)cn1)C(=O)NCc1ccccc1 (stereo not given) ; assay system M14 melanoma; TGI recorded at 47.8 µM

Entry OCCNc1ncnc2c1ncn2C1OC(CO)C(O)C1O (stereo not given) ; assay system M14 melanoma; TGI recorded at > 100 µM

Entry O=C1c2ccccc2-c2n[nH]c3cccc1c23 ; assay system M14 melanoma; TGI recorded at > 100 µM

Entry Cc1ccc2c(c1)SC(c1cc3c(cc1Br)OCO3)S2 (stereo not given) ; assay system M14 melanoma; TGI recorded at > 31.6 µM

Entry O=C(Cc1ccccc1)NNc1nc(NNC(=O)c2ccncc2)nc(Nc2ccccc2)n1 ; assay system M14 melanoma; TGI recorded at > 10 µM

----------
For each of the compounds below, state its TGI.
test system: HOP-18 NSCLC; experiment: NCI tumour cell line growth inhibition, 48 h

Short answer for Cc1nc(-c2nc(C)c(C(=O)NN(C)C)s2)sc1C(=O)NN(C)C : TGI was > 100 µM

Short answer for COc1cc(/C=C/c2ccc(OC(C)=O)cc2)cc(OC)c1OC : TGI was > 100 µM

Short answer for CC(=O)OCC1OC(n2c(=O)n(-c3ccccc3)c(=O)c3cc(Br)cc(Br)c32)C(OC(C)=O)C(OC(C)=O)C1OC(C)=O (configuration not stated) : TGI was > 100 µM

Short answer for Nc1ncnc2c(C3OC(CO)C(O)C3O)[nH]nc12 (configuration not stated) : TGI was 0.144 µM

Short answer for CCc1ccc(Nc2cc(=O)[nH]c(=S)n2C)cc1 : TGI was > 100 µM

Short answer for Cc1nc2ccccc2c(=O)n1NC(=S)Nc1cccc(Cl)c1 : TGI was > 100 µM

Short answer for O=C(/C=C/c1ccccc1O)c1cccnc1 : TGI was > 100 µM

Short answer for CC(=O)OC1C/C(C)=C/CCC(C)/C=C/C2(C)CCC(C(C)(C)O)C12 (configuration not stated) : TGI was > 100 µM

Short answer for COc1cc(O)c2c(c1)C(=O)c1cc(C)cc(O)c1C2=O : TGI was > 100 µM

Short answer for COc1cc(C)c2c(=O)c3c(oc2c1)C(=O)c1c(O)c(OC)cc(O)c1C3=O : TGI was 3.9 µM

Short answer for CN(C)CC/C(=N\Nc1ccc(Cl)c(Cl)c1)c1ccccc1 : TGI was 5.76 µM

Short answer for Cc1ccccc1NC(=O)C1C(=O)N(c2ccccc2C)C(=O)/C1=N\N (configuration not stated) : TGI was > 100 µM

Short answer for COc1ccc(/C=C2\SC(c3ccc(OC)cc3)N(NC(=O)Cc3ccccc3)C2=O)cc1 (configuration not stated) : TGI was > 100 µM

Short answer for O=C1[C@@H]2C3SC(c4ccccc43)[C@@H]2C(=O)N1c1ccccc1 : TGI was > 100 µM

Short answer for NC(=O)Nc1cc(O)ccc1N=Nc1ccc(S(=O)(=O)Nc2ccccn2)cc1 : TGI was > 100 µM

Short answer for COc1c(NC(=O)CC(C)=O)[c]([Hg][O]C(C)=O)c(OC)c(Cl)[c]1[Hg][O]C(C)=O : TGI was 26.5 µM

Short answer for Nc1ccc2c(c1)CC1c3ccccc3C(C2)c2ccccc21 : TGI was > 100 µM
